# System: Methicillin-resistant Staphylococcus aureus (MRSA)
# Type: cell-based
# run.parameters: drug-resistant strain MRSA
Non-standard residues stand in square brackets, D forms with d. PEG2000 = polyethylene glycol 2000, conjugated to the N-terminus; PEG4000 = polyethylene glycol 4000, conjugated to the C-terminus; PEG200 = polyethylene glycol 200, conjugated to the C-terminus; PEG500 = polyethylene glycol 500, conjugated to the C-terminus; 2Nal = N[C@@H](Cc1ccc2ccccc2c1)C(=O)O; PEG1000 = polyethylene glycol 1000
quantity: MIC MRSA (µg/mL)
One number for each entry, in µg/mL.

Answered cases to consult:
Lookup: Sample PEG2000-RKLLXRLKXRK-NH2 [LV-29] (PEG2000-RKLL[2Nal]RLK[2Nal]RK-NH2) [polyethylene glycol 2000 conjugated to N-terminal; X=3-(2-naphthyl)-alanine] — what was its MIC MRSA?
Found: 4

Lookup: Reported MIC MRSA for Ac-RKLLXRLKXRK-PEG200 [LV-26] (Ac-RKLL[2Nal]RLK[2Nal]RK-PEG200) [polyethylene glycol 200 conjugated to C-terminal; X=3-(2-naphthyl)-alanine] : what is it?
Found: 4

Lookup: GET /values?readout=MIC MRSA&item= Ac-RKLLXRLKXRK-PEG1000 [LV-28] (Ac-RKLL[2Nal]RLK[2Nal]RK-PEG1000) [polyethylene glycol 1000 conjugated to C-terminal; X=3-(2-naphthyl)-alanine]
Found: 4

Lookup: Looking for the measured MIC MRSA of Ac-RKLLXRLKXRK-PEG4000 [LV-30] (Ac-RKLL[2Nal]RLK[2Nal]RK-PEG4000) [polyethylene glycol 4000 conjugated to C-terminal; X=3-(2-naphthyl)-alanine] , can you help?
Found: 8

Next, consider the following substance.
Lookup: Record request: MIC MRSA value, item Ac-RKLLXRLKXRK-PEG500 [LV-27] (Ac-RKLL[2Nal]RLK[2Nal]RK-PEG500) [polyethylene glycol 500 conjugated to C-terminal; X=3-(2-naphthyl)-alanine]
Found: 8

---

Please provide measured Average survival times (Days) for the entries that follow.
# System: Pseudomonas aeruginosa ATCC 27853
# experiment: Injectable formulations on mice infected with peritonitis
# Type: in vivo, ICR mice
# run.parameters: 1 mg/kg via tail vein, twice a day for 3 days, observed for 14 d, n = 10
Marks after values point to notes of the source that are not given here. Non-standard residues stand in square brackets, D forms with d. Residues, ends and D or L forms follow the SMILES beside them. dPhe(3,4-F2) = N[C@H](Cc1ccc(F)c(F)c1)C(=O)O; d2Nal = N[C@H](Cc1ccc2ccccc2c1)C(=O)O; dNva = CCC[C@@H](N)C(=O)O

Lookup: Average survival times (Days) lookup needed for CCC[C@@H](NC(=O)[C@@H](CCCCN)NC(=O)[C@@H](CCCNC(=N)N)NC(C)=O)C(=O)N[C@H](CCC)C(=O)N[C@H](Cc1ccc2ccccc2c1)C(=O)N[C@H](CCCNC(=N)N)C(=O)N[C@H](CCC)C(=O)N[C@H](CCCCN)C(=O)N[C@H](Cc1ccc2ccccc2c1)C(=O)N[C@H](CCCNC(=N)N)C(=O)N[C@H](CCCCN)C(N)=O [LV-13] (Ac-[dR][dK][dNva][dNva][d2Nal][dR][dNva][dK][d2Nal][dR][dK]-NH2) , thanks.
Found: 7.9** Days

Lookup: Item under review: CC(=O)N[C@H](CCCNC(=N)N)C(=O)N[C@H](CCCCN)C(=O)N[C@H](CC(C)C)C(=O)N[C@H](CC(C)C)C(=O)N[C@H](Cc1ccc(F)c(F)c1)C(=O)N[C@H](CCCCN)C(=O)N[C@H](CC(C)C)C(=O)N[C@H](CCCCN)C(=O)N[C@H](Cc1ccc(F)c(F)c1)C(=O)N[C@H](CCCCN)C(=O)N[C@H](CCCNC(=N)N)C(N)=O [LV-6] (Ac-[dR][dK][dL][dL][dPhe(3,4-F2)][dK][dL][dK][dPhe(3,4-F2)][dK][dR]-NH2) . Reported Average survival times (Days)?
Found: 10.5**** Days

Now turn to the next molecule.
Lookup: Which Average survival times (Days) reading was recorded for the molecule CC(=O)N[C@H](CCCNC(=N)N)C(=O)N[C@H](CCCCN)C(=O)N[C@H](CC(C)C)C(=O)N[C@H](CC(C)C)C(=O)N[C@H](Cc1ccccc1)C(=O)N[C@H](CCCNC(=N)N)C(=O)N[C@H](CC(C)C)C(=O)N[C@H](CCCCN)C(=O)N[C@H](Cc1ccccc1)C(=O)N[C@H](CCCNC(=N)N)C(=O)N[C@H](CCCCN)C(N)=O [LV-2] (Ac-[dR][dK][dL][dL][dF][dR][dL][dK][dF][dR][dK]-NH2) ?
Found: 12.0**** Days
